Test system: Pseudomonas aeruginosa
ASSAY_NAME: Antibacterial activity against mexX, mexB deficient Pseudomonas aeruginosa NB52023-CDK006 harboring gyrAT83I and parC S87L by broth microdilution method
Format: functional
REPORTED_METRIC: MIC

Would you please look over these solved cases?
1) O=C(O)c1cn(C2CC2)c2cc(N3CCN(CCOCCOCCOc4ccc5ccc(=O)oc5c4)CC3)c(F)cc2c1=O :: > 32 µg/mL
2) O=CN1CCN(c2cc3c(cc2F)c(=O)c(C(=O)O)cn3C2CC2)CC1 :: 32 µg/mL
3) C=CCCC(=O)N1CCN(c2cc3c(cc2F)c(=O)c(C(=O)O)cn3C2CC2)CC1 :: > 32 µg/mL
4) CC(C)(C)OC(=O)NCCCCCC(=O)N1CCN(c2cc3c(cc2F)c(=O)c(C(=O)O)cn3C2CC2)CC1 :: > 32 µg/mL

Next, consider the following compound.
input: Given C=CCN1CCN(c2cc3c(cc2F)c(=O)c(C(=O)O)cn3C2CC2)CC1 , respond with its MIC.
output: 32 µg/mL
